The entries below pair molecules with pIC50 values for Ubiquitin carboxyl-terminal hydrolase 7 (Homo sapiens), as found in several publications.
pIC50: −log10 of the molar value.

Find pIC50 for `N#CC1(CN2CC(N3CCCc4cc(Cl)cc(-c5ccnc6cc(CN7C(=O)CCC7=O)sc56)c43)C2)CC1` on Ubiquitin carboxyl-terminal hydrolase 7 (Homo sapiens) and write it down.
6.00 to 7.00

Next:
Find pIC50 for CCC(O)(CO)c1cc2nccc(-c3cc(Cl)cc4c3O[C@@H](C(=O)N3CCNCC3)C4)c2s1 (stereo partly drawn) on Ubiquitin carboxyl-terminal hydrolase 7 (Homo sapiens) and write it down.
> 6.00

Find pIC50 for O=C(C1Cc2cc(Cl)cc(-c3ccnc4[nH]c(Cc5cccnc5)cc34)c2O1)N1CCNCC1 (stereo not drawn) on Ubiquitin carboxyl-terminal hydrolase 7 (Homo sapiens) and write it down.
5.00 to 6.00

Find pIC50 for `CC[C@H](O)c1cc2nccc(-c3cc(Cl)cc4c3O[C@@H](c3onc5c3CNCC5)C4)c2s1` on Ubiquitin carboxyl-terminal hydrolase 7 (Homo sapiens) and write it down.
> 6.00

Find pIC50 for OCc1cc2nccc(-c3cc(Cl)cc4c3OC(c3onc5c3CNCC5)C4)n2n1 (stereo not drawn) on Ubiquitin carboxyl-terminal hydrolase 7 (Homo sapiens) and write it down.
5.00 to 6.00

Find pIC50 for `O=C(CCc1ccccc1)N1CCC(Cn2cnc3cc(Cl)ccc3c2=O)CC1` on Ubiquitin carboxyl-terminal hydrolase 7 (Homo sapiens) and write it down.
< 5.00
